B1: glmS ribozyme (parent)
chain: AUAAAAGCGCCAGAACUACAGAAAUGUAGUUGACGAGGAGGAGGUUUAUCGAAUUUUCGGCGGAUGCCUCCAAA

- Variants of: B1
- EXPERIMENTAL_DETAILS: self-cleavage kobs at 40 uM GlcN6P; higher = faster cleavage; RNA array
- RUN_CONDITIONS: with glucosamine-6-phosphate
Fewer inactive variants are shown than the library holds.
READOUT_LABEL: self-cleavage kobs at 40 uM GlcN6P

// self-cleavage kobs at 40 uM GlcN6P lookup, key: C16U G29C G37A G44A
< 1e-05 s⁻¹

// self-cleavage kobs at 40 uM GlcN6P lookup, key: G51A C58G
< 1e-05 s⁻¹

// self-cleavage kobs at 40 uM GlcN6P lookup, key: A36C G41C U54G G66C C68G
< 1e-05 s⁻¹

// self-cleavage kobs at 40 uM GlcN6P lookup, key: U31A C50G C58A
5.39e-05 s⁻¹

// self-cleavage kobs at 40 uM GlcN6P lookup, key: G9A U57G C67U
< 1e-05 s⁻¹

// self-cleavage kobs at 40 uM GlcN6P lookup, key: A15G U30G C70U
0.000184 s⁻¹

// self-cleavage kobs at 40 uM GlcN6P lookup, key: G41C G44C
< 1e-05 s⁻¹

// self-cleavage kobs at 40 uM GlcN6P lookup, key: C34U A42C
< 1e-05 s⁻¹

// self-cleavage kobs at 40 uM GlcN6P lookup, key: A6U C10A G38U
< 1e-05 s⁻¹

// self-cleavage kobs at 40 uM GlcN6P lookup, key: G37U G40U C67G
< 1e-05 s⁻¹

// self-cleavage kobs at 40 uM GlcN6P lookup, key: U46C C68U
2.43e-05 s⁻¹

// self-cleavage kobs at 40 uM GlcN6P lookup, key: G7U U45C
< 1e-05 s⁻¹

// self-cleavage kobs at 40 uM GlcN6P lookup, key: C11U G13A A14C A52C G66A
< 1e-05 s⁻¹

// self-cleavage kobs at 40 uM GlcN6P lookup, key: A6C G32C U49G
< 1e-05 s⁻¹

// self-cleavage kobs at 40 uM GlcN6P lookup, key: A14C A15U G51C
< 1e-05 s⁻¹

// self-cleavage kobs at 40 uM GlcN6P lookup, key: A6C U30A
< 1e-05 s⁻¹

// self-cleavage kobs at 40 uM GlcN6P lookup, key: C8G U47A A48C C70G
< 1e-05 s⁻¹

// self-cleavage kobs at 40 uM GlcN6P lookup, key: G7U U30G C50G C61A
0.000244 s⁻¹

// self-cleavage kobs at 40 uM GlcN6P lookup, key: C50G U54A
2.88e-05 s⁻¹

// self-cleavage kobs at 40 uM GlcN6P lookup, key: A15G G41A
0.000137 s⁻¹

// self-cleavage kobs at 40 uM GlcN6P lookup, key: G41A C70U
0.00159 s⁻¹

// self-cleavage kobs at 40 uM GlcN6P lookup, key: A42U G63U
< 1e-05 s⁻¹
